// reported TGI for each item listed
test system: UACC-62 melanoma; experiment: NCI tumour cell line growth inhibition, 48 h
Your answer should be a plain number; it is taken to be in µM.

Please review the following examples before continuing.
compound=C/C(=C\c1ccccc1)C(=O)CCN1CCOCC1 value_type=TGI unit_label=µM reported=32.6
compound="C=CCC1([C@H](C)[C@@H](OC(C)=O)c2cc(OC)c(OC)c(OC)c2)C[C@@H](OC)CCC1=O (some centres undefined)" value_type=TGI unit_label=µM reported=34.9
compound=CCOC(=O)C1=C(C)N(Cc2ccccc2)C(C)=C(C(=O)OCC)C1c1ccccc1O value_type=TGI unit_label=µM reported=50.2
compound=CCSC1=CC(=O)c2nc3ccccc3c3ccnc1c23 value_type=TGI unit_label=µM reported=4.32
compound=C=CCc1c2c(c(OC)c3ccoc13)C(=O)/C(=C/c1ccccc1OC)O2 value_type=TGI unit_label=µM reported=58.4

Asked: Please look up its TGI: Cc1cc(-c2nc3c(O)cccc3s2)ccc1N
Given back: 26.7

Asked: Please look up its TGI: CCCN=Cc1cc(Cc2ccc(O)c(C=NCCC)c2)ccc1O
Given back: 22.7

Asked: Please look up its TGI: Nc1c2ccccc2nc2c1ccc1ncccc12
Given back: 37.8

Asked: Please look up its TGI: COc1c(CCC[P+](c2ccccc2)(c2ccccc2)c2ccccc2)cc2c(c1OC)OCO2
Given back: 5.53

Asked: Please look up its TGI: CCC1=CCC23C(=O)C=CC(=O)C2(C1)C(=O)c1cccc(OC)c1C3=O (centres undefined)
Given back: 37.2

Asked: Please look up its TGI: COc1ccc(/C(=N/O)c2ccccc2-c2nc3ccccc3c(=O)n2-c2ccc(S(=O)(=O)Nc3ncccn3)cc2)cc1C
Given back: 19.9

Asked: Please look up its TGI: N#C/C(=C1\OC(=O)C(c2ccc(Br)cc2)=C1O)c1ccc(Br)cc1
Given back: 25.9

Asked: Please look up its TGI: O=[N+]([O-])C(=C(N1CCCCC1)N1CCCCC1)/C(Cl)=C(\Cl)Br
Given back: 28.1
